Data credit: patent US6525022B1

ASSAYED_TARGET: T1, human natriuretic peptide receptor-A (human, UniProt P16066 33-1061)
T1 construct: whole, on cells; also called hNPR-A; human NPR-A
T1 sequence (looked up): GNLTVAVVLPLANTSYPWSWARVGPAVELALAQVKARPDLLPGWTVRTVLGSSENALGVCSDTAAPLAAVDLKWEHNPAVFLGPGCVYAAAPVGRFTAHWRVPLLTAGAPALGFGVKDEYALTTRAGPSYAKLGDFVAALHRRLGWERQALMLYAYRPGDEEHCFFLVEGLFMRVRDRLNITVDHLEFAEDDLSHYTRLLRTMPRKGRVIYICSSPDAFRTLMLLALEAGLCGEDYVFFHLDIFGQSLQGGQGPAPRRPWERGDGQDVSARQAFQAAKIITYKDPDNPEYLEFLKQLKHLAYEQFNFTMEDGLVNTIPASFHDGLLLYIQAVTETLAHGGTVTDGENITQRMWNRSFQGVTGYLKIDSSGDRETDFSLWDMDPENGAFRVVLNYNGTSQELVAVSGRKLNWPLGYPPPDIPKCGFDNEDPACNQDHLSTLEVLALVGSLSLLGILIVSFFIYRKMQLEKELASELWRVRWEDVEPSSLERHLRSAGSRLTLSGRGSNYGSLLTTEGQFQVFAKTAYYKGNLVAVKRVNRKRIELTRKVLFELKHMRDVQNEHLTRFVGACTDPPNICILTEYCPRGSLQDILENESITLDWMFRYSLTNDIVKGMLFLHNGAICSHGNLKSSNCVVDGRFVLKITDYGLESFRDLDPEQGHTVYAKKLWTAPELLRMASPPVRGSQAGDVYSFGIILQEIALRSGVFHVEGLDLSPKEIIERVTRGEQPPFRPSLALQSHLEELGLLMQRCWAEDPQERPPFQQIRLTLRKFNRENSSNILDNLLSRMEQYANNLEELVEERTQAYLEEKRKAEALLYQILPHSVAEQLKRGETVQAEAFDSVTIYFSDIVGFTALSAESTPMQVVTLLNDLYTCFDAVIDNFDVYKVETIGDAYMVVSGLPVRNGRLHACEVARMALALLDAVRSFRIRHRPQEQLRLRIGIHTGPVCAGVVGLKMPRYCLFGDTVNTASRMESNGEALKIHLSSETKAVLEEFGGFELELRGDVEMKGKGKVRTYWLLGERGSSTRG
EXPERIMENT_NOTES: competition binding, Table I; tracer and receptor format not given
Bridges are numbered along the chain shown (N, C = ends). Where no end group is shown, it is not given here. [ ]: non-standard residue; d: D form. hCys = N[C@@H](CCS)C(=O)O
Quick reference: IC50 of the listed items.

# BINDER, IC50 (nM)
rows = [
    ("SLDRSSCFTGSLDSIRA[hCys]SGLGCNSFR[hCys] (disulfide 18-28, 7-23) [ANF 70]", 3.3),
    ("SLRRSSCFGGRIDSIRAQSGLGCNSFRY (disulfide 7-23, also called hANF(1-28) M12I, R14S, G16R) [ANF 25]", 0.056),
    ("SLRRSSCFTGSMDRIGAQSGLGCNSFRY (disulfide 7-23, Cys7-Cys23 disulfide; also called hANF(1-28) G9T, R11S) [ANF 50]", 0.57),
]
